For each record, write down the corresponding MIC.
tested on: Salmonella enterica serovar Typhimurium SL1344; conditions: LPM pH 5.8
Structures can show the parent of a compound that is named as a salt.

Some molecules with known MIC results, for comparison:
[
  {
    "molecule": "Cc1ccc(Cl)c(Nc2ccccc2C(=O)O)c1Cl [MECLOFENAMATE SODIUM]",
    "result-type": "MIC",
    "assay-result": "> 50 µM"
  },
  {
    "molecule": "[O-][n+]1ccccc1[S-].[O-][n+]1ccccc1[S-].[Zn+2]",
    "result-type": "MIC",
    "assay-result": "≤ 0.78 µM"
  },
  {
    "molecule": "COc1c(N2C[C@@H]3CCCN[C@@H]3C2)c(F)cc2c(=O)c(C(=O)O)cn(C3CC3)c12 [MOXIFLOXACIN HYDROCHLORIDE]",
    "result-type": "MIC",
    "assay-result": "> 50 µM"
  },
  {
    "molecule": "COC(=O)C1=C(C)NC(C)=C(C(=O)OCC(C)C)C1c1ccccc1[N+](=O)[O-] (stereo not given)",
    "result-type": "MIC",
    "assay-result": "12.5 µM"
  },
  {
    "molecule": "C[C@H]1c2cccc(O)c2C(=O)C2=C(O)[C@]3(O)C(=O)C(C(N)=O)=C(O)[C@@H](N(C)C)[C@@H]3[C@@H](O)[C@@H]21 [DOXYCYCLINE HYDROCHLORIDE]",
    "result-type": "MIC",
    "assay-result": "1.56 µM"
  },
  {
    "molecule": "C[n+]1cc2c3c(ccc2c2ccc4cc5c(cc4c21)OCO5)OCO3 [SANGUINARINE SULFATE]",
    "result-type": "MIC",
    "assay-result": "> 50 µM"
  },
  {
    "molecule": "C[C@H]1[C@H](NC(=O)/C(=N\\OC(C)(C)C(=O)O)c2csc(N)n2)C(=O)N1S(=O)(=O)O",
    "result-type": "MIC",
    "assay-result": "≤ 0.78 µM"
  },
  {
    "molecule": "C[CH2][Hg][S]c1ccccc1C(=O)[O-].[Na+]",
    "result-type": "MIC",
    "assay-result": "≤ 0.78 µM"
  },
  {
    "molecule": "CC1CCc2c(N3CCC(O)CC3)c(F)cc3c(=O)c(C(=O)O)cn1c23 (stereo not given)",
    "result-type": "MIC",
    "assay-result": "≤ 0.78 µM"
  },
  {
    "molecule": "CC(C)(O/N=C(\\C(=O)N[C@@H]1C(=O)N2C(C(=O)[O-])=C(C[n+]3ccccc3)CS[C@H]12)c1csc(N)n1)C(=O)O",
    "result-type": "MIC",
    "assay-result": "≤ 0.78 µM"
  }
]

Please look at the items below and tell me MIC for each one, in order.
1. OC[C@H]1O[C@H](O[C@]2(CCl)O[C@H](CCl)[C@@H](O)[C@@H]2O)[C@H](O)[C@@H](O)[C@H]1Cl
2. CCCNC(C)(C)COC(=O)c1ccccc1 [MEPRYLCAINE HYDROCHLORIDE]
3. CO/N=C(\C(=O)N[C@@H]1C(=O)N2C(C(=O)O)=C(CSC(=O)c3ccco3)CS[C@H]12)c1csc(N)n1 [CEFTIOFUR HYDROCHLORIDE]
4. O=C(N[C@H](CO)[C@H](O)c1ccc([N+](=O)[O-])cc1)C(Cl)Cl

["> 50 µM", "> 50 µM", "≤ 0.78 µM", "≤ 0.78 µM"]

Query: MIC; subject: CC[C@@H]1C(=O)OC[C@@H]1Cc1cncn1C [PILOCARPINE NITRATE]
> 50 µM
